# Assay Remarks: Biodistribution in BDL rats with and without excess cold compound
# Assay type: in vivo
# Measurement Context: male, Sprague Dawley, rat, spleen, iv, total radioactivity, BDL rats, 15 days post-op, 1 hour post-injection, no excess; read-out: Activity in Spleen, Mean
Numbered stars: 1 amine (or outer) side, 2 acyl side, 3 side chain; on linkers, the order of the positions; unused ones are H or OH. Bridge positions count the residues as written; N and C are the ends. Side chains are listed from the residue outwards. Peptide text beside a SMILES is read from it. * marks the point of attachment. X1 = C/C(=N\O)C(C)(C)NCCC(CCNC(C)(C)/C(C)=N/O)CCN*; Glutaryl = O=C(CCCC(=O)[*:2])[*:1]; X2 = NC(=O)COCC(=O)NCCOCCOCCOCCN*
Metric: tissue uptake dose at 1 h (%ID)

Molecule	Metric	Test Result
C/C(=N\O)C(C)(C)NCCC(CCNC(=O)CCCC(=O)NCCCC[C@@H]1NC(=O)CSC[C@@H](C(=O)NCCOCCOCCOCCNC(=O)COCC(N)=O)NC(=O)[C@H](Cc2ccccc2)NC(=O)[C@@H]2CSSC[C@H](NC1=O)C(=O)N[C@@H](CCCNC(=N)N)C(=O)NCC(=O)N[C@@H](CC(=O)O)C(=O)N2)CCNC(C)(C)/C(C)=N/O (stereo partly shown) [Compound 8] ({CH2CO}-K([Glutaryl-X1])CRGDCFC-X2; disulfide 2-6; thioether N-8)	tissue uptake dose at 1 h	0.51

----------
# Assay Remarks: Biodistribution in sham-operated rats with and without excess cold compound
# Format: in vivo
# Measurement Context: male, Sprague Dawley, rat, blood, iv, total radioactivity, 15 days post-op, 1 hour post-injection, +10K-fold excess cold Compound 8, read-out: Activity in Blood, Mean
Numbered stars: 1 amine (or outer) side, 2 acyl side, 3 side chain; on linkers, the order of the positions; unused ones are H or OH. Bridge positions count the residues as written; N and C are the ends. Side chains are listed from the residue outwards. Peptide text beside a SMILES is read from it. * marks the point of attachment. X1 = C/C(=N\O)C(C)(C)NCCC(CCNC(C)(C)/C(C)=N/O)CCN*; Glutaryl = O=C(CCCC(=O)[*:2])[*:1]; X2 = NC(=O)COCC(=O)NCCOCCOCCOCCN*

Compound	tissue uptake dose at 1 h [%ID]
C/C(=N\O)C(C)(C)NCCC(CCNC(=O)CCCC(=O)NCCCC[C@@H]1NC(=O)CSC[C@@H](C(=O)NCCOCCOCCOCCNC(=O)COCC(N)=O)NC(=O)[C@H](Cc2ccccc2)NC(=O)[C@@H]2CSSC[C@H](NC1=O)C(=O)N[C@@H](CCCNC(=N)N)C(=O)NCC(=O)N[C@@H](CC(=O)O)C(=O)N2)CCNC(C)(C)/C(C)=N/O (stereo partly shown) [Compound 8] ({CH2CO}-K([Glutaryl-X1])CRGDCFC-X2; disulfide 2-6; thioether N-8)	1.4

----------
# Assay Remarks: Biodistribution in BDL rats with and without excess cold compound
# Type: in vivo
# Measurement Context: male, Sprague Dawley, rat, bile and urine, iv, 3 MBq, total radioactivity, BDL rats, 15 days post-op, 1 hour post-injection, 10K-fold excess cold Compound 8
Numbered stars: 1 amine (or outer) side, 2 acyl side, 3 side chain; on linkers, the order of the positions; unused ones are H or OH. Bridge positions count the residues as written; N and C are the ends. Side chains are listed from the residue outwards. Peptide text beside a SMILES is read from it. * marks the point of attachment. X1 = C/C(=N\O)C(C)(C)NCCC(CCNC(C)(C)/C(C)=N/O)CCN*; Glutaryl = O=C(CCCC(=O)[*:2])[*:1]; X2 = NC(=O)COCC(=O)NCCOCCOCCOCCN*

Molecule	dose excreted at 1 h [%]
C/C(=N\O)C(C)(C)NCCC(CCNC(=O)CCCC(=O)NCCCC[C@@H]1NC(=O)CSC[C@@H](C(=O)NCCOCCOCCOCCNC(=O)COCC(N)=O)NC(=O)[C@H](Cc2ccccc2)NC(=O)[C@@H]2CSSC[C@H](NC1=O)C(=O)N[C@@H](CCCNC(=N)N)C(=O)NCC(=O)N[C@@H](CC(=O)O)C(=O)N2)CCNC(C)(C)/C(C)=N/O (stereo partly shown) [Compound 8] ({CH2CO}-K([Glutaryl-X1])CRGDCFC-X2; disulfide 2-6; thioether N-8)	41.6
